B1: Lysozyme C, P61626 (parent)
chain: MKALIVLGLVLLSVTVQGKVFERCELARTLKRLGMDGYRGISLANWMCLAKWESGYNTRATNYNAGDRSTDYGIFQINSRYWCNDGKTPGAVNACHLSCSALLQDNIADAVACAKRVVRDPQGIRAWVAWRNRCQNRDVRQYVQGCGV

Variants of: B1
Settings: Homo sapiens; pH 2.7; Thermal; DSC; glycine-HCl 0.05 M; reversible: yes; structure 1LZ1; whole UniProt chain shown
Below, each of the variants is paired with its reported unfolding enthalpy (van 't Hoff) value.
# output: bare number, implied unit kcal/mol

Illustrative cases are given below, each with its answer.
• T58V = 99.9
• T70A = 109
• T88V = 111
• T88A = 104
• T70V = 107

Could you now consider this next variant?
Prompt: # input variant: `T58A` ; wanted: its unfolding enthalpy (van 't Hoff)
Completion: 102
